test: Selectivity index, ratio of CC50 for cytotoxicity in mock-infected human MT4 cells assessed as reduction in cell viability incubated for 5 days by MTT to EC50 for inhibition of reverse transcriptase K103N/Y181C double mutant/nucleocapsid protein 7 in HIV1 RES056 infected in human MT4 cells assessed as protection against virus-induced cytopathic effect incubated for 5 days by MTT assay; type: toxicity, cell-based; details: time 5 day, read-out: Ratio CC50/EC50

Compound | selectivity ratio at 120 h
Cc1cn([C@H]2C[C@H](N=[N+]=[N-])[C@@H](COC(=O)CCCCC(=O)OCSc3ccccc3CNCCC(N)=O)O2)c(=O)[nH]c1=O | > 149
NC(=O)CCNC(=O)c1ccccc1S | 41.9
Cc1cn([C@H]2C[C@H](N=[N+]=[N-])[C@@H](CO)O2)c(=O)[nH]c1=O [ZIDOVUDINE] | > 6.25

----------
test: Cytotoxicity in mock-infected human MT4 assessed as reduction in cell viability incubated for 5 days by MTT assay; assay type: cell-based; settings: mock-infected MT4 cells, time 5 day
Here the recorded CC50 at 120 h is given for each entry.
Measure name: CC50 at 120 h

Molecule | Observed result
Cc1cn([C@H]2C[C@H](N=[N+]=[N-])[C@@H](COC(=O)CCC(=O)OCSc3ccccc3C(=O)NCCC(N)=O)O2)c(=O)[nH]c1=O | 124 µM
Cc1cn([C@H]2C[C@H](N=[N+]=[N-])[C@@H](COC(=O)CC(C)CC(=O)OCSc3ccccc3C(=O)NCCC(N)=O)O2)c(=O)[nH]c1=O (stereo partly drawn) | > 198 µM
Cc1cn([C@H]2C[C@H](N=[N+]=[N-])[C@@H](COC(=O)CCCCC(=O)OCSc3ccccc3CNCCC(N)=O)O2)c(=O)[nH]c1=O | > 198 µM

----------
Here, each record is paired with measured pEC50 data.
test: Inhibition of nucleocapsid protein 7/reverse transcriptase K103N/Y181C double mutant in HIV1 RES056 infected in human MT4 cells assessed as protection against virus-induced cytopathic effect incubated for 5 days by MTT assay; format: cell-based; details: Human immunodeficiency virus 1, RES056, MT4, 120 h
pEC50: −log10 of the molar value.
Measure name: pEC50

Smi | Observed result
Cc1cn([C@H]2C[C@H](N=[N+]=[N-])[C@@H](COC(=O)CCCCC(=O)OCSc3ccccc3CNCCC(N)=O)O2)c(=O)[nH]c1=O | 5.88
NC(=O)CCNC(=O)c1ccccc1S | 5.10
Cc1cn([C@H]2C[C@H](N=[N+]=[N-])[C@@H](CO)O2)c(=O)[nH]c1=O | 5.92

----------
experiment: Selectivity index, ratio of CC50 for cytotoxicity in human TZM-bl assessed as reduction in cell viability incubated for 5 days by MTT to EC50 for inhibition of reverse transcriptase/nucleocapsid protein 7 in wild type HIV1 NL4-3 infected in human TZM-bl cells assessed as protection against virus-induced cytopathic effect incubated for 5 days by MTT assay; type: toxicity, cell-based; details: time 5 day, read-out: Ratio CC50/EC50
Collected selectivity ratio at 120 h values appear next to each entry.

Smi | selectivity ratio at 120 h
Cc1cn([C@H]2C[C@H](N=[N+]=[N-])[C@@H](COC(=O)CCCCC(=O)OCSc3ccccc3CNCCC(N)=O)O2)c(=O)[nH]c1=O | > 4.76
NC(=O)CCNC(=O)c1ccccc1S | > 34.9
Cc1cn([C@H]2C[C@H](N=[N+]=[N-])[C@@H](CO)O2)c(=O)[nH]c1=O | > 23.4

----------
assay: Cytotoxicity in human TZM assessed as reduction in cell viability incubated for 5 days by MTT assay; type: cell-based; details: TZM cells, time 5 day

Molecule | CC50 at 120 h
Cc1cn([C@H]2C[C@H](N=[N+]=[N-])[C@@H](COC(=O)CCC(=O)OCSc3ccccc3C(=O)NCCC(N)=O)O2)c(=O)[nH]c1=O | > 1660 nM
Cc1cn([C@H]2C[C@H](N=[N+]=[N-])[C@@H](CO)O2)c(=O)[nH]c1=O | > 374 nM
Cc1cn([C@H]2C[C@H](N=[N+]=[N-])[C@@H](COC(=O)CCCC(=O)OCSc3ccccc3C(=O)NCCC(N)=O)O2)c(=O)[nH]c1=O | > 1620 nM
NC(=O)CCNC(=O)c1ccccc1S | 82500 nM
Cc1cn([C@H]2C[C@H](N=[N+]=[N-])[C@@H](COC(=O)CCCCC(=O)OCSc3ccccc3CNCCC(N)=O)O2)c(=O)[nH]c1=O | > 1580 nM
Cc1cn([C@H]2C[C@H](N=[N+]=[N-])[C@@H](COC(=O)CC(C)(C)CC(=O)OCSc3ccccc3C(=O)NCCC(N)=O)O2)c(=O)[nH]c1=O | > 1550 nM
Cc1cn([C@H]2C[C@H](N=[N+]=[N-])[C@@H](COC(=O)CC(C)CC(=O)OCSc3ccccc3C(=O)NCCC(N)=O)O2)c(=O)[nH]c1=O (some centres not stated) | > 1580 nM

----------
Recorded CC50 at 120 h for the following molecules
experiment: Cytotoxicity in mock-infected human MT4 assessed as reduction in cell viability incubated for 5 days by MTT assay; assay type: cell-based; conditions: mock-infected MT4 cells, time 5 day

Smi | CC50 at 120 h
Cc1cn([C@H]2C[C@H](N=[N+]=[N-])[C@@H](COC(=O)CCCC(=O)OCSc3ccccc3C(=O)NCCC(N)=O)O2)c(=O)[nH]c1=O | > 202 µM
Cc1cn([C@H]2C[C@H](N=[N+]=[N-])[C@@H](CO)O2)c(=O)[nH]c1=O | > 7.48 µM
Cc1cn([C@H]2C[C@H](N=[N+]=[N-])[C@@H](COC(=O)CC(C)(C)CC(=O)OCSc3ccccc3C(=O)NCCC(N)=O)O2)c(=O)[nH]c1=O | > 194 µM
NC(=O)CCNC(=O)c1ccccc1S | 332 µM
